# assayed_target: HCV RNA-dependent RNA polymerase (Hepatitis C virus genotype 1a)
# Construct: HCV RNA-dependent RNA polymerase is encoded in the NS5B (nonstructural protein 5B) region of HCV; made in house; host or cells: insect cells or E. coli
# Sequence (P27958 2421-3011): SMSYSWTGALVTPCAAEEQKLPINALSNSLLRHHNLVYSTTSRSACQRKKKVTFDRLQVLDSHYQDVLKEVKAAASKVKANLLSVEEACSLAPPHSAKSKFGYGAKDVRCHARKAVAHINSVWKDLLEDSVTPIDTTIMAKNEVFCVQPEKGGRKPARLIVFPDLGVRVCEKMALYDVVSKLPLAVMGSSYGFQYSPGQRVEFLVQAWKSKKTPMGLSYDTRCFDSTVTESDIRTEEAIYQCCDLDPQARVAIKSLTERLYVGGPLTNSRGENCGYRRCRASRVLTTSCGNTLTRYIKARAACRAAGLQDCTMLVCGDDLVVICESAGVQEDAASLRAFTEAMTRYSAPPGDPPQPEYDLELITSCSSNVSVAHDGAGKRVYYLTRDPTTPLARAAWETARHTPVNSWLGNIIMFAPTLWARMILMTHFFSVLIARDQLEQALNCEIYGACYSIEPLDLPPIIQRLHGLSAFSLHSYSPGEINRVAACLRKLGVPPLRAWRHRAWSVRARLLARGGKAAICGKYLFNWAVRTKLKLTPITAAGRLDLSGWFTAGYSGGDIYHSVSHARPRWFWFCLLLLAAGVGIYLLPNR
# protocol_notes: DIG-UTP assay without radioisotope-labeled substrate, with pre-incubation (Example 2)
# Assay type: biochemical
# assay_context: pre-incubation 25° C. 1 hr, I-1 0.5 μg/ml, 3′-dUTP 0.7 μM, A 100 μg/ml, B 50 μg/ml, C 25 μg/ml
reported_metric: Inhibitory rate, treatment of pre-incubation +

compound="O=c1ccn([C@@H]2O[C@H](COP(=O)(O)OP(=O)(O)OP(=O)(O)O)C[C@H]2O)c(=O)[nH]1 [3′-dUTP, 3′-deoxyuridine triphosphate]" reported_value=50%
compound=Cc1oc(-c2ccccc2)nc1CCOc1ccc(C=C2C(=O)NC(=O)NC2=O)cc1 reported_value=24%
compound=O=C1NC(=O)C(=Cc2ccc(OCCc3cccc4ccccc34)cc2)C(=O)N1 reported_value=20%
compound=CCCCC1=N/C(=C\c2ccccc2OCC(=O)O)C(=O)N1Cc1ccc(-c2ccccc2-c2nnn[nH]2)cc1 reported_value=15%
